System: MS2 coat protein
Test: apparent KD of MS2 coat protein; designed switch direction (-1 OFF switch, 1 ON switch): -1; higher = weaker reporter binding
Details: input ligand: none
# cutoff 30 nM applies to apparent KD of MS2 coat protein; >= gives Criterion met, < gives Criterion not met

RESIDUE STRING	ASSIGNED LABEL
UUCUGGACAGGAUAUGUACUUGAGCACUUGAGGAUCACCCAAGUCCUCAAGUACUCAGGCACAGAAGGGUUAAUUU [jl-ex5.4.65 ViennaUCT mod] (Eterna round: R97, puzzle: Exclusion 5)	Criterion met
AAUUAAACAAGCAGAUCCCACAUGAGGAUCACCCAUGUGCUCGUCUUAUAAGGUACUGUGACGAGAGUCACGGUACC [Mat - Sensor, turn-off var - Eli Mod - D64] (Eterna round: R97, puzzle: Sensor, turn-off variant 1)	Criterion met
AGACUCAUUGUGAGGAUAUCGGGUCAACGAGACUACGAGAAGGCACAUGAGGAUCACCCAUGUAGCCACGGCUA [Eternabot (L2) Solution 95] (Eterna round: R97, puzzle: Brourd's mod of Exclusion 4)	Criterion met
GCUUGUAGAGGAUAUACGAGGGCCCGAGCGGCGAGAGCCGCACAUGAGGAUCACCCAUGUAGAAGGCUACUAUU [JL-ex2-4.19 ViennaUCT mod] (Eterna round: R97, puzzle: Exclusion 2)	Criterion met
ACAAGCUUUUAGAUUUUCAACAUGAGGAUCACCCAUGUUCGUCUUAUGCUAGUGCGAGUGCGGUGUACUCGUAUUAG [JL TOV1 3.81 sellena mod] (Eterna round: R97, puzzle: Sensor, turn-off variant 1)	Criterion not met
UAUAUGUCAGGAUAUUAGUAGUAAAUGAAUAAAAUUAUUACUGAGAAGGGACAUGAGGAUCACCCAUGUGCUUC [Mat - Exclusion 4 - Eli Mod - D25] (Eterna round: R97, puzzle: Exclusion 4)	Criterion not met
CUGCUCCGUGUAGGAUAUGCGCGCACCACCCGCGCAGAAGGACAUGAGGAUCACCCAUGUAUGUUAUUAUCACGUGAGGCGCGC [Design 37] (Eterna round: R96, puzzle: Exclusion NG 1)	Criterion not met
GUUAACGAUCAGGAUAUAUCAAAUCAUAGCUUGAUAGAAGGGAUCACAUGAGGAUCACCCAUGUGAUCUUCUUU [jl-ex6-4.14 ViennaUCT mod] (Eterna round: R97, puzzle: Exclusion 6)	Criterion not met
UUACCCUGAGGAUAUCCACCGUGAUACAUGAGGAUCACCCAUGUUAAUGCCUGAGUUCCCGGAGAAGGCAGAUUCC [Megrez] (Eterna round: R97, puzzle: Exclusion 5)	Criterion met
AAAGUUCGAGGAUAUCUACUUAGCUACAUGAGGAUCACCCAUGUUAUCCUCCCGCUGGGAAGAGAAGGCGGUUAAA [Xeonceso] (Eterna round: R96, puzzle: Exclusion 5)	Criterion met
GGCUUCUGAGGAUAUUAACACCGUUACAUGAGGAUCACCCAUGUUCCUCACGCUACGGCUUAAGAAGGCAGAUGAA [Eternabot (Original) Solution 32] (Eterna round: R97, puzzle: Exclusion 5)	Criterion met
AAUAACUCAGUGAGGAUAUUUGCGGGUGUUUUCGCAAAGAAGGCACAUGAGGAUCACCCAUGUCAGAGGAGCUA [Eternabot (Original) Solution 24] (Eterna round: R97, puzzle: Brourd's mod of Exclusion 4)	Criterion met
ACUGGUCGAGGAUAUACAUGACGUGCUUCGGCACGAGAUCUACAUGAGGAUCACCCAUGUAGAAGGCGACCAGU [E2/11-A2] (Eterna round: R97, puzzle: Exclusion 2)	Criterion met
UAUUAGCAAGCGAGAUCCCACAUGAGGAUCACCCAUGUGCUCGUCGCAUCCAGAAUUACUGGGUGCGCUCGUCUUAU [Winner reversed engineered 15] (Eterna round: R97, puzzle: Sensor, turn-off variant 1)	Criterion not met
AAUUUCGCGGCCCGAUGACUGCGUACUGACAGUGAGCUCACAUGAGGAUCACCCAUGUUUUUUGCUCGUAAAUCAGA [Quarat] (Eterna round: R96, puzzle: Sensor v2, turn-off variant 2)	Criterion not met
